# assayed.system: full length pHrodo-labelled monomeric (P301S) 2N4R tau (human, UniProt P10636 1-758, labelled with pHrodo Red Maleimide); further: test concentration or dose not given here
# Sequence (P10636 other isoform, or with tags, fused parts or gaps P301S P301S): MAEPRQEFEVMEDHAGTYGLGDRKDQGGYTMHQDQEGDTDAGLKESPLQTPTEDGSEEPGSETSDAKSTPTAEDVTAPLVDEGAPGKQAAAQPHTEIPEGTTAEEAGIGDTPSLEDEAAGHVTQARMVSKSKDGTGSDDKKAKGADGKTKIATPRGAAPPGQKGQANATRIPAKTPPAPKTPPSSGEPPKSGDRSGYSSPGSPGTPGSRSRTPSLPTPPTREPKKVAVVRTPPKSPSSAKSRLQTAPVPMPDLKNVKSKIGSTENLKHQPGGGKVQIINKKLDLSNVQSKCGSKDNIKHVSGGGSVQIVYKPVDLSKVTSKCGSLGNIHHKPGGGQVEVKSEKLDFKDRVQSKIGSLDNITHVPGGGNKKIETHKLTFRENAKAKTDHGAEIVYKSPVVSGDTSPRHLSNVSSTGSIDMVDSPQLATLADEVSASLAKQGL
# assay.protocol: cell-based or functional assay
inhibition of uptake of monomeric tau into human iPSC-derived neurons values by entry
measurement.kind: inhibition of uptake of monomeric tau into human iPSC-derived neurons (% inhibition)

# binder, observed.value
records = [
    ("Clone 31 (VH5Vκ2), humanised variant of clone #28, human IgG1 (antibody, V domains shown, also called VH5VK2; VH5Vk2) VH: QVQLQESGPGLVKPSETLSLTCTVSGFSLNNYDMSWVRQAPGKGLEWIGTVSTTYRRYYASWAKGRFTISRDNSKNTLDLQMTSLTAEDTATYFCAASGIWGRGTLVTVSS VL: AQVLTQSPSTLSASVGDRVTITCQSSQRVYSNYLAWYQQKPGQPPKRLIFLASTLESGVPSRFSGSGSGTEFTLTISSLQPDDFATYYCAGTYTGSIWAFGGGTKVEIK", 57.3),
    ("Clone 32 (VH5Vκ4), humanised variant of clone #28, human IgG1 (antibody, V domains shown, also called VH5VK4; VH5Vk4) VH: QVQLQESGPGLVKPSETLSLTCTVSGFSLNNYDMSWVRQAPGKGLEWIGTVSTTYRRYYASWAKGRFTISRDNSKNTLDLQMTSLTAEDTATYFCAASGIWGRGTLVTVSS VL: DIQMTQSPSTLSASVGDRVTITCQSSQRVYSNYLAWYQQKPGQPPKRLIFLASTLESGVPSRFSGSGSGTEFTLTISSLQPDDFATYYCAGTYTGSIWAFGGGTKVEIK", 64.2),
    ("Clone 28 (VH4Vκ4), humanised variant of clone #28, human IgG1 (antibody, V domains shown, also called VH4VK4; VH4Vk4) VH: QVQLQESGPGLVKPSETLSLTCTVSGFSLNNYDMSWVRQAPGKGLEWIGTVSTTYRRYYASWAKGRFTISKDTSSTTVDLQMTSLTAEDTATYFCAASGIWGRGTLVTVSS VL: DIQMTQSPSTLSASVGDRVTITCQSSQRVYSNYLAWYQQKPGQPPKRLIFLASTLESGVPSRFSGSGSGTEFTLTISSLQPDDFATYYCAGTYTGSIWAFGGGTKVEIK", 61.5),
]
